Experiment: Blood brain barrier penetration / plasma drug levels after intravenous dosing in CD rats
Format: in vivo, rat
Details: rat, plasma, iv, 10 mg/kg intravenously
Some compounds, each annotated with its measured half-life.

| compound | units symbol | half-life |
| --- | --- | --- |
| Cc1ccc(-c2nc(NCCNc3ccc([N+](=O)[O-])c(N)n3)ncc2-c2ncc[nH]2)c(Br)c1 [G] | min | 31 |
| N#Cc1ccc(NCCNc2ncc(-c3ccncc3)c(-c3ccc(Cl)cc3Cl)n2)nc1 [I] | min | 42 |

====

As shown below, each of these compounds has a reported concentration at 40 min value.
Test: Blood brain barrier penetration / plasma drug levels after intravenous dosing in CD rats
Format: in vivo, rat
Conditions: rat, plasma, iv, 10 mg/kg intravenously, time 40 min

| compound | concentration at 40 min, ng/mL |
| --- | --- |
| Cc1ccc(-c2nc(NCCNc3ccc([N+](=O)[O-])c(N)n3)ncc2-c2ncc[nH]2)c(Br)c1 [G] | 1330 |
| N#Cc1ccc(NCCNc2ncc(-c3ccncc3)c(-c3ccc(Cl)cc3Cl)n2)nc1 [I] | 614 |

====

Tested on: GSK3
Experiment: Cell-based glycogen synthase assay for GSK3 inhibitory activity (CHO-HIRC cells)
Conditions: read-out: EC50 (glycogen synthase activity stimulated to 50% of the maximal level), 20 minutes incubation
pEC50: −log10 of the molar value.

| molecule | pEC50 |
| --- | --- |
| Nc1nc(NCCNc2ncc(-n3ccccc3=O)c(-c3ccc(Cl)cc3Cl)n2)ccc1[N+](=O)[O-] [R] | 7.85 |
| Cc1ccc(-c2nc(NCCNc3ccc([N+](=O)[O-])c(N)n3)ncc2-c2ncc[nH]2)c(Br)c1 [G] | 7.28 |
| Nc1nc(NCCNc2ncc(-n3ccnc3)c(-c3ccc(Cl)cc3Cl)n2)ccc1[N+](=O)[O-] [Y] | 7.12 |
| Nc1nc(NCCNc2ncc(-n3cc(Cl)ccc3=O)c(-c3ccc(Cl)cc3Cl)n2)ccc1[N+](=O)[O-] [O] | 6.88 |
| Nc1nc(NCCNc2ncc(CO)c(-c3ccc(Cl)cc3Cl)n2)ccc1[N+](=O)[O-] [K] | 6.83 |
| Nc1nc(NCCNc2ncc(NC(=O)NCCN3CCOCC3)c(-c3ccc(Cl)cc3Cl)n2)ccc1[N+](=O)[O-] [D] | 5.52 |
| Nc1nc(NCCNc2ncc(N3CCOCC3)c(-c3ccc(Cl)cc3Cl)n2)ccc1[N+](=O)[O-] [U] | 7.13 |
| Nc1nc(NCCNc2ncc(-c3ncc[nH]3)c(-c3ccc(Cl)cc3Cl)n2)ccc1[N+](=O)[O-] [L] | 6.59 |
| Nc1nc(NCCNc2ncc(-c3ncc[nH]3)c(-c3ccc(F)cc3Br)n2)ccc1[N+](=O)[O-] [Compound S] | 6.66 |
| CN(CCNc1ccc([N+](=O)[O-])c(N)n1)c1ncc(-c2ncc[nH]2)c(-c2ccc(Cl)cc2Cl)n1 [Q] | 7.77 |
| Nc1nc(NCCNc2ncc(-c3ncc[nH]3)c(-c3ccc(F)cc3Cl)n2)ccc1[N+](=O)[O-] [X] | 6.37 |
| N#Cc1ccc(-c2nc(NCCNc3ccc([N+](=O)[O-])cn3)ncc2-n2ccnc2)cc1 [T] | 5.89 |

====

Test system: GSK3
Test: Cell-based glycogen synthase assay for GSK3 inhibitory activity (CHO-HIRC cells)
Conditions: read-out: EC50 (glycogen synthase activity stimulated to 50% of the maximal level), 20 minutes incubation
pEC50: −log10 of the molar value.

| smiles string | pEC50 |
| --- | --- |
| O=[N+]([O-])c1ccc(NCCNc2ncc(-c3ncc[nH]3)c(-c3ccc(Cl)cc3Cl)n2)nc1 | 6.43 |
| CN1CCN(c2cnc(NCCNc3ccc([N+](=O)[O-])c(N)n3)nc2-c2ccc(Cl)cc2Cl)CC1 | 7.27 |
| FC(F)(F)c1ccc(NCCNc2ncc(-c3ncc[nH]3)c(-c3ccc(Cl)cc3Cl)n2)nc1 | 5.91 |
| Nc1nc(NCCNc2ncc(-n3cccn3)c(-c3ccc(Cl)cc3Cl)n2)ccc1[N+](=O)[O-] | 7.00 |
| N#Cc1ccc(NCCNc2ncc(-c3ccncc3)c(-c3ccc(Cl)cc3Cl)n2)nc1 | 6.74 |
| O=[N+]([O-])c1ccc(NCCNc2ccc(-c3ncc[nH]3)c(-c3ccc(Cl)cc3Cl)n2)nc1 | 6.92 |
| CNCC(=O)Nc1cnc(NCCNc2ccc([N+](=O)[O-])c(N)n2)nc1-c1ccc(Cl)cc1Cl | 6.15 |
| Nc1nc(NCCNc2ncc(N3C(=O)CCC3=O)c(-c3ccc(Cl)cc3Cl)n2)ccc1[N+](=O)[O-] | 7.07 |

====

Assay: Blood brain barrier penetration / plasma drug levels after intravenous dosing in CD rats
Type: in vivo, rat
Conditions: rat, plasma, iv, 10 mg/kg intravenously

| smiles string | Cmax / ng/mL |
| --- | --- |
| N#Cc1ccc(NCCNc2ncc(-c3ccncc3)c(-c3ccc(Cl)cc3Cl)n2)nc1 | 1200 |
| Cc1ccc(-c2nc(NCCNc3ccc([N+](=O)[O-])c(N)n3)ncc2-c2ncc[nH]2)c(Br)c1 | 4600 |

====

Test: Blood brain barrier penetration / plasma drug levels after intravenous dosing in CD rats
Format: in vivo, rat
Conditions: rat, plasma, iv, 10 mg/kg intravenously
Experimental: GSK3 inhibitor blood brain barrier penetration may generally be measured by administering a GSK3 inhibitor compound formulated in 15% captisol/20 mM sodium citrate to a final dose of 10 mg/kg intravenously through a jugular catheter into 250 g CD rats. At 150 minutes post administration brains from the rats were isolated and fast frozen. GSK3 inhibitor plasma levels in the isolated material were established using standard techniques.
Reported Tmax is given for each of the following compounds.
observable: Tmax

| smiles string | measurement |
| --- | --- |
| Cc1ccc(-c2nc(NCCNc3ccc([N+](=O)[O-])c(N)n3)ncc2-c2ncc[nH]2)c(Br)c1 | ~0 h |
| N#Cc1ccc(NCCNc2ncc(-c3ccncc3)c(-c3ccc(Cl)cc3Cl)n2)nc1 | ~0 h |

====

Assay: Blood brain barrier penetration / plasma drug levels after intravenous dosing in CD rats
Type: in vivo, rat
Settings: rat, plasma, iv, 10 mg/kg intravenously, time 70 min
observable: concentration at 70 min (ng/mL)

| smiles string | observable | units symbol | measurement |
| --- | --- | --- | --- |
| Cc1ccc(-c2nc(NCCNc3ccc([N+](=O)[O-])c(N)n3)ncc2-c2ncc[nH]2)c(Br)c1 | concentration at 70 min | ng/mL | 796 |
| N#Cc1ccc(NCCNc2ncc(-c3ccncc3)c(-c3ccc(Cl)cc3Cl)n2)nc1 | concentration at 70 min | ng/mL | 440 |

====

System: rat hippocampi cells
Assay: GSK3 inhibitor protection of rat hippocampi cells from glutamate induced damage (Trypan Blue count)
Type: cell-based
Conditions: rat hippocampal neurons, 200 μM glutamic acid for 5 minutes, counted 20 to 24 hours later; average of 1 to 4 replications
Property: Cells Surviving (%) With Glutamate; scope: individual compounds
observable: Cells Surviving (%) With Glutamate

| smiles string | measurement |
| --- | --- |
| Nc1nc(NCCNc2ncc(-c3ncc[nH]3)c(-c3ccc(F)cc3Cl)n2)ccc1[N+](=O)[O-] | 50 |
| CN1CCN(c2cnc(NCCNc3ccc([N+](=O)[O-])c(N)n3)nc2-c2ccc(Cl)cc2Cl)CC1 | 67 |
| CN(CCNc1ccc([N+](=O)[O-])c(N)n1)c1ncc(-c2ncc[nH]2)c(-c2ccc(Cl)cc2Cl)n1 | 67 |
| Nc1nc(NCCNc2ncc(-n3cccn3)c(-c3ccc(Cl)cc3Cl)n2)ccc1[N+](=O)[O-] | 61 |
| Nc1nc(NCCNc2ncc(N3CCOCC3)c(-c3ccc(Cl)cc3Cl)n2)ccc1[N+](=O)[O-] | 62 |
| FC(F)(F)c1ccc(NCCNc2ccc(-c3ncc[nH]3)c(-c3ccc(Cl)cc3Cl)n2)nc1 | 51 |

====

Assay: Blood brain barrier penetration / plasma drug levels after intravenous dosing in CD rats
Format: in vivo, rat
Conditions: rat, plasma, iv, 10 mg/kg intravenously, time 150 min
observable: concentration at 150 min (ng/mL)

| compound | observable | measurement |
| --- | --- | --- |
| N#Cc1ccc(NCCNc2ncc(-c3ccncc3)c(-c3ccc(Cl)cc3Cl)n2)nc1 [I] | concentration at 150 min | 106 |
| Cc1ccc(-c2nc(NCCNc3ccc([N+](=O)[O-])c(N)n3)ncc2-c2ncc[nH]2)c(Br)c1 [G] | concentration at 150 min | 113 |

====

Assay: Blood brain barrier penetration / plasma drug levels after intravenous dosing in CD rats
Type: in vivo, rat
Settings: rat, plasma, iv, 10 mg/kg intravenously, time 7 min

| compound | concentration at 7 min, ng/mL |
| --- | --- |
| Cc1ccc(-c2nc(NCCNc3ccc([N+](=O)[O-])c(N)n3)ncc2-c2ncc[nH]2)c(Br)c1 [G] | 4050 |
| N#Cc1ccc(NCCNc2ncc(-c3ccncc3)c(-c3ccc(Cl)cc3Cl)n2)nc1 [I] | 1190 |
